- Tested on: MDA-MB-231 breast
- assay_details: NCI tumour cell line growth inhibition, 48 h
assay_metric: GI50

molecule	GI50
O=C(Nc1cccnc1)c1cccs1	81.3 µM
C=C1C(=O)O[C@H]2[C@H]1CC/C(COC(=O)NCc1c[nH]c3ccc(OC)cc13)=C\CC[C@@]1(C)O[C@@H]21	1.92 µM
C[CH2][Sn]1([CH2]C)[O]C2C(O)OC(CO)C(O)C2[O]1 (stereo not given)	14.4 µM
COc1cc2c3c(n(CCCN=[N+]=[N-])c(=O)c2cc1OC)-c1ccc(N)cc1C3=O	0.625 µM

We now examine a further molecule.
input: Give reported GI50 value for COc1ccc(C2=C(Br)C(=O)OC2)cc1Cl
output: 24.7 µM

###

TGI values, listed per item
- Tested on: SW-620 colon
- assay_details: NCI tumour cell line growth inhibition, 48 h

Some solved cases for reference:
molecule	test_system	TGI
COC1=C(C)C(=O)C2C(C1=O)C(c1ccc(OC)c(OC)c1)[C@H]2C (some centres undefined)	SW-620 colon	> 100 µM
COc1ccc(-c2cn3c(nc4ccccc43)c(C)n2)cc1	SW-620 colon	> 100 µM
CCC[CH2][Sn]([CH2]CCC)([O]C(=O)c1cc(OC)c(OC)c(OC)c1)[O]C(=O)c1cc(OC)c(OC)c(OC)c1	SW-620 colon	2.72 µM
CNC(=S)NNC(=O)c1c(C)nc2sccn12	SW-620 colon	> 100 µM

input: // output TGI; input CCN(CC)C(=O)C1=C(C)NC(C)=C(C(=O)N(CC)CC)C1 ; system SW-620 colon
output: > 100 µM

input: // output TGI; input CCOC(=O)CSc1[nH]c2nc(C)nc(Cl)c2c1C#N ; system SW-620 colon
output: > 10 µM

input: // output TGI; input Cc1ccc(NC(=O)C2C(=O)C(=O)N(c3ccc(C)cc3)C2=O)cc1 (centres undefined) ; system SW-620 colon
output: > 100 µM

input: // output TGI; input NC(N)=NS(=O)(=O)c1ccc(Nc2c3ccccc3nc3ccc(C(=O)Nc4ccc(S(N)(=O)=O)cc4)cc23)cc1 ; system SW-620 colon
output: > 100 µM

input: // output TGI; input O=C(c1ccsc1)c1cc2c(s1)C(=O)c1ccsc1C2=O ; system SW-620 colon
output: 0.341 µM

input: // output TGI; input S=C(Nc1ccc(-c2nc3ccccc3s2)cc1)Nc1ccccn1 ; system SW-620 colon
output: > 100 µM

input: // output TGI; input CCOC(=O)c1c(NS(=O)(=O)c2ccc(Br)cc2)sc2c1CCCC2 ; system SW-620 colon
output: 30.6 µM

input: // output TGI; input O=[N+]([O-])c1ccccc1S(=O)(=O)c1ccccc1[N+](=O)[O-] ; system SW-620 colon
output: > 56.2 µM

input: // output TGI; input NC(=O)c1ncn(C2OC(CO)C(O)C2O)n1 (centres undefined) ; system SW-620 colon
output: > 100 µM

input: // output TGI; input Oc1c(Cl)ccc2cccnc12 ; system SW-620 colon
output: > 100 µM

input: // output TGI; input NC1=NN(c2ccccc2)C(=O)C1C(=O)C(=O)NC1C2CC3CC(C2)CC1C3 (centres undefined) ; system SW-620 colon
output: > 100 µM

Data provenance: PubChem BioAssay (NCI)
